- System: NCI-H23 lung
- test-method-notes: NCI tumour cell line growth inhibition, 48 h
experimental-readout: TGI

Cc1ccc2c(c1)[n+]([O-])c(N)n[n+]2[O-]: > 100 µM

TGI in this record for `O=C(Nc1ccccc1C(=O)NCCCO)/C(=C/c1ccccc1O)NC(=O)c1ccccc1` : > 94.5 µM

---

- Test system: MCF7 breast
- test-method-notes: NCI tumour cell line growth inhibition, 48 h
Reported values of TGI for individual entries

TGI in this record for O=C1CSC(c2cccs2)N1c1nc2cc3sc(N4C(=O)CSC4c4cccs4)nc3cc2s1 (stereo unspecified) : > 50 µM

TGI in this record for `CS(=O)(=O)c1ccc([C@H]2O[C@@H](CO)C[C@]2(O)c2ccc(S(C)(=O)=O)cc2)cc1` : > 100 µM

TGI in this record for `c1ccc2c3c(c(N4CCOCC4)nc2c1)CCCC3` : > 100 µM

TGI in this record for `Nc1ccc(S(=O)(=O)Nc2nc3ccccc3nc2N2CCCCC2)cc1` : > 100 µM

TGI in this record for `CC(C)c1nc(CN(C)C(=O)N[C@H](C(=O)N[C@@H](Cc2ccccc2)C[C@H](O)[C@H](Cc2ccccc2)NC(=O)OCc2cncs2)C(C)C)cs1` : 64.9 µM

TGI in this record for C=C1C(=O)O[C@@]23C1CC[C@@H](C)C2CC[C@@]1(C)OC31 (stereo partly specified) : 24.9 µM

---

- System: A549 NSCLC
- test-method-notes: NCI tumour cell line growth inhibition, 48 h
experimental-readout: TGI

Record excerpt, results attached:
C=C1C(=O)O[C@H]2[C@H]1CC/C(Cn1cc(-c3ccc(OC)cc3)nn1)=C\CC[C@@]1(C)O[C@@H]21: 24.4 µM
CC1S/C(=N/c2nnc(-c3ccccc3)o2)NC1=O (stereo not given): > 100 µM
O=C1C=CC(=O)c2c(O)c(NCCc3ccc(O)cc3)c(Cl)c(O)c21: > 10 µM
Cn1c2ccccc2c2c(-c3ccccc3)[n+]3ccncc3nc21: > 100 µM

Here is the next item to consider.
TGI in this record for `[Cl-].[Dy+3].[O-]/N=C(\c1ccccc1)c1ccccn1.[O-]/N=C(\c1ccccc1)c1ccccn1.[O-]/N=C(\c1ccccc1)c1ccccn1` : > 100 µM

---

- Test system: MOLT-4 leukemia
- test-method-notes: NCI tumour cell line growth inhibition, 48 h
experimental-readout: TGI

Record excerpt, results attached:
COc1ccc(C2=CC3CCC2C3)cc1 (stereo not given): > 100 µM
O=C(O)C(CO)NC(=O)n1c2ccccc2c2ccccc21 (stereo not given): > 100 µM
Brc1cc2nn(-c3ccccc3)nc2c2nonc12: > 100 µM
CC(=O)OCCN1c2ccccc2Sc2cnccc21: > 10 µM
Nc1nc(Cl)c2ncn(Cc3ccc(C45CC6CC(CC(C6)C4)C5)c(O)c3)c2n1: 16.2 µM

TGI in this record for `CC(C)(C)OC(=O)N1CCc2c(sc3ncnc(N/N=C/c4cccc5ccccc45)c23)C1` : 16.9 µM

TGI in this record for CC[C@@H]1CN(C)[C@H]2Cc3c([nH]c4ccccc34)C(=O)C[C@H]1C2C(=O)OC (stereo not given in full) : > 100 µM

TGI in this record for `CC1(C)C=C(S(=O)(=O)c2ccccc2)Oc2ccccc2O1` : 71.9 µM

TGI in this record for `COC(=O)c1ccc(C=Nc2ccc(S(N)(=O)=O)cc2)cc1` : > 100 µM

TGI in this record for `Clc1ccc(OCc2nnc(CCCCCCCCc3nnc(COc4ccc(Cl)cc4)n3Nc3ccccc3)n2Nc2ccccc2)cc1` : > 100 µM

TGI in this record for `COc1cc2c(/C=C3/C(=O)Nc4ccccc43)c(Cl)[nH]c2cc1C` : 14.2 µM

TGI in this record for `O=C(/N=N/C(=O)OCc1ccccc1)OCc1ccccc1` : > 100 µM

TGI in this record for CC1(C)OCC2OC3([C@H]4OC(C)(C)O[C@@H]4CO)OC(C)(C)OC3C2O1 (stereo not given in full) : > 100 µM

TGI in this record for `Oc1c(CN2CCC(N3CCCCC3)CC2)cc(Cc2cc(CN3CCC(N4CCCCC4)CC3)c(O)c3ncccc23)c2cccnc12` : 6.22 µM

TGI in this record for `COC(=O)C1=Nc2c(C)nn(-c3ccccc3)c2N=C(c2ccc([N+](=O)[O-])cc2)C1` : > 10 µM

TGI in this record for `O=c1[nH]ncc(Br)c1Br` : 5.19 µM

TGI in this record for `O=[N+]([O-])c1ccc(-c2ccc(-c3csc(Nc4ccccn4)n3)o2)cc1` : > 100 µM

TGI in this record for `Cc1nn(-c2cc(Cl)ccc2[N+](=O)[O-])c(C)c1Cl` : > 100 µM

TGI in this record for `CC1=CC(=Nc2ccc(N(CCCl)CCCl)cc2)C=C(C)C1=O` : > 25.6 µM

TGI in this record for `CC/C(=C(/c1ccc(O)cc1)c1ccc(OCCNC)cc1)c1ccccc1` : 7.14 µM

TGI in this record for `COc1ccc2cc(NC(=O)N/N=C\c3ccc(Cl)cc3)ccc2c1` : > 100 µM

TGI in this record for `NC(=O)c1ccc(I)c(N)c1` : > 100 µM

TGI in this record for `O=C(/C(Br)=C/c1ccccc1)c1ccccc1` : 6.95 µM

TGI in this record for `CN1CCN(C)C12C=c1ccccc1=CC21CC1` : 54.8 µM

TGI in this record for `CN1CCN(C(=O)OCc2nc3c(N4CCOCC4)nc(Cl)nc3n2C)CC1` : 4.69 µM

TGI in this record for CSC(C1c2ccccc2N(c2ccc(C)cc2)C2=NC(=O)N(C)C(=O)C21Cl)S(=O)(=O)c1ccc(C)cc1 (stereo not given) : 32 µM

---

- System: HL-60(TB) leukemia
- test-method-notes: NCI tumour cell line growth inhibition, 48 h
experimental-readout: TGI

O=c1c2ccccc2nc(Nc2cccc(Cl)c2)n1/N=C/C=C/c1ccccc1: > 100 µM
CC(C)(C)c1cc(/C=C(\C#N)C(=O)NCCO)cc(C(C)(C)C)c1O: 36.9 µM
NC(N)=NS(=O)(=O)c1ccc(NC(=O)c2ccc3nc4ccccc4c(Nc4ccc(S(=O)(=O)N=C(N)N)cc4)c3c2)cc1: > 100 µM

TGI in this record for `CC(=O)OCCN1c2ccccc2Sc2cnccc21` : > 10 µM

TGI in this record for `CC(C)c1nc(CN(C)C(=O)N[C@H](C(=O)N[C@@H](Cc2ccccc2)C[C@H](O)[C@H](Cc2ccccc2)NC(=O)OCc2cncs2)C(C)C)cs1` : 36.9 µM

---

- System: SR leukemia
- test-method-notes: NCI tumour cell line growth inhibition, 48 h
experimental-readout: TGI

Entry `CC1=CC(=Nc2ccc(N(CCCl)CCCl)cc2)C=C(C)C1=O` under SR leukemia had TGI of > 33.9 µM

Entry `CCOn1c(C2(CC3CCN(C(=O)c4ccccc4)CC3)OCCO2)cc2ccccc21` under SR leukemia had TGI of 22.5 µM

Entry CC1=NN(C(=O)Nc2ccccc2)C(=O)C2CCC(=O)N12 (stereo unspecified) under SR leukemia had TGI of > 100 µM

Entry CCOC(=O)C(CC#Cc1ccc(C#CCC(NC(C)=O)C(=O)OCC)cc1)NC(C)=O (stereo unspecified) under SR leukemia had TGI of > 100 µM

Entry `c1ccc(/C(=N/Nc2ccccn2)c2ncccn2)cc1` under SR leukemia had TGI of > 27.5 µM

Entry `Brc1ccc2c(-c3csc(-c4c[nH]c5ccc(Br)cc45)n3)c[nH]c2c1` under SR leukemia had TGI of > 100 µM

Entry CC(=O)OCC(OC(C)=O)C1C[C@H]2O[C@@H]3[C@H](C[C@H]2O1)O[C@@]1(C[C@@H]3C)C[C@H](C)[C@@H]2O[C@]3(C[C@@H]2O1)C[C@H]1O[C@H]2[C@H](C)[C@H]4OC(=O)CC5CC[C@H]6OC7[C@H]8O[C@]9(CC[C@H]%10CC(O)(CO)[C@H](CC[C@H]%11C[C@@H](C)C(O)(CO)C(C[C@@H]4O[C@H]2C[C@H]1O3)O%11)O%10)CC8O[C@@H]7[C@@H](O9)[C@H]6O5 (stereo partly specified) under SR leukemia had TGI of > 1 µM

---

- Tested on: HOP-62 NSCLC
- test-method-notes: NCI tumour cell line growth inhibition, 48 h
experimental-readout: TGI

CCC(C(=O)c1ccc(OC)c(OC)c1)N(C(=O)C(F)(F)F)C(C)c1ccccc1 (configuration not stated): > 100 µM
O=C1CSC(c2cccs2)N1c1nc2cc3sc(N4C(=O)CSC4c4cccs4)nc3cc2s1 (configuration not stated): > 50 µM
COC(=O)/C(=N/NC(=O)C[N+](C)(C)C)C(C(=O)OC)C(=O)C(=O)Nc1ccc(F)cc1 (configuration not stated): > 100 µM
COc1cc(/C=C\C(=O)O)ccc1OCc1ccccc1: > 100 µM
COC(=O)c1ccc(C=Nc2ccc(S(N)(=O)=O)cc2)cc1: > 100 µM

Entry `Oc1ccc(CN2CCC(N3CCCCC3)CC2)c2cccnc12` under HOP-62 NSCLC had TGI of > 100 µM

Entry `N#CSc1c[nH]c2cccc(/C=C/C(=O)/C=C(/C=C/c3cccc4[nH]cc(SC#N)c34)OB(F)F)c12` under HOP-62 NSCLC had TGI of 17.1 µM

Hey, just so you know, these numbers are from PubChem BioAssay (NCI).
